- MEASURED ON: T1, HTRA3, P83110
- T1 sequence (P83110 354-453, limits assumed, looked up): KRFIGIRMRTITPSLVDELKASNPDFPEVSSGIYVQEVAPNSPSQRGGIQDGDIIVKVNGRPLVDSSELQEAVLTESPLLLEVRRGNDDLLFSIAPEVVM
- PROTOCOL DESCRIPTION: holdup assay
- Design: key: below the threshold = too weak to quantify, mostly under pKd 3.1 to 4
- EXPERIMENTAL SETUP: plain residues with an end cap or a label only (N-terminal biotin on a linker: ado-ado)
ASSAY ENDPOINT: pKd

Completed entries (count: 5):
{"BINDER": "KSRVAFFEEL [NF2, P35240;P35240-1]", "RECORDED RESULT": "below the threshold"}
{"BINDER": "GIKKITSTAL [RPS6KA3, P51812]", "RECORDED RESULT": "below the threshold"}
{"BINDER": "REEPDHSTEV [CCRL2, O00421]", "RECORDED RESULT": 3.48}
{"BINDER": "QRPYRRGSEI [KCNJ18, B7U540]", "RECORDED RESULT": 3.58}
{"BINDER": "DRIQSCLSDA [SBF1, O95248]", "RECORDED RESULT": 3.57}

Data request: Recorded pKd for EDGESWEYQI [TRPV6, Q9H1D0] , please?
Data returned: below the threshold

Data request: Query (binder): PPGKHLVTEV [KCNA7, Q96RP8] ; field requested: pKd
Data returned: below the threshold

Data request: Look up pKd for this binder: EKCGKEFSEF [PRKACA, P17612]
Data returned: below the threshold

Data request: If you can, please state the reported pKd value of PYSESDDDWC [CACNA1A, O00555] .
Data returned: 5.79

Data request: // query pKd value for entry NVYGIESVKI [GRIA2, P42262]
Data returned: 3.64

Data request: Please give the measured pKd for this binder: ARESQKVSHV [FAM110B, Q8TC76]
Data returned: below the threshold

Data request: Look up pKd for this binder: SRSVVESDEL [MYPN, Q86TC9]
Data returned: below the threshold

Data request: Quick check: pKd of NTANRRTTPV [CACNG2, Q9Y698] ?
Data returned: below the threshold

Data request: # input binder: ILRKSTTTTV [PRR16, Q569H4] ; wanted: its pKd
Data returned: below the threshold

Data request: Requested field: pKd. Item: DPAESMESLV [PTPRG, P23470]
Data returned: below the threshold

Data request: Field request: pKd | item: TISFTQTSQF [SLC1A1, P43005]
Data returned: below the threshold
